Source listed as ChEMBL document CHEMBL3745647.

IC50 reference
target.under.test: Epidermal growth factor receptor (Homo sapiens)
Sequence (P00533 whole entry, the tested form may be a part): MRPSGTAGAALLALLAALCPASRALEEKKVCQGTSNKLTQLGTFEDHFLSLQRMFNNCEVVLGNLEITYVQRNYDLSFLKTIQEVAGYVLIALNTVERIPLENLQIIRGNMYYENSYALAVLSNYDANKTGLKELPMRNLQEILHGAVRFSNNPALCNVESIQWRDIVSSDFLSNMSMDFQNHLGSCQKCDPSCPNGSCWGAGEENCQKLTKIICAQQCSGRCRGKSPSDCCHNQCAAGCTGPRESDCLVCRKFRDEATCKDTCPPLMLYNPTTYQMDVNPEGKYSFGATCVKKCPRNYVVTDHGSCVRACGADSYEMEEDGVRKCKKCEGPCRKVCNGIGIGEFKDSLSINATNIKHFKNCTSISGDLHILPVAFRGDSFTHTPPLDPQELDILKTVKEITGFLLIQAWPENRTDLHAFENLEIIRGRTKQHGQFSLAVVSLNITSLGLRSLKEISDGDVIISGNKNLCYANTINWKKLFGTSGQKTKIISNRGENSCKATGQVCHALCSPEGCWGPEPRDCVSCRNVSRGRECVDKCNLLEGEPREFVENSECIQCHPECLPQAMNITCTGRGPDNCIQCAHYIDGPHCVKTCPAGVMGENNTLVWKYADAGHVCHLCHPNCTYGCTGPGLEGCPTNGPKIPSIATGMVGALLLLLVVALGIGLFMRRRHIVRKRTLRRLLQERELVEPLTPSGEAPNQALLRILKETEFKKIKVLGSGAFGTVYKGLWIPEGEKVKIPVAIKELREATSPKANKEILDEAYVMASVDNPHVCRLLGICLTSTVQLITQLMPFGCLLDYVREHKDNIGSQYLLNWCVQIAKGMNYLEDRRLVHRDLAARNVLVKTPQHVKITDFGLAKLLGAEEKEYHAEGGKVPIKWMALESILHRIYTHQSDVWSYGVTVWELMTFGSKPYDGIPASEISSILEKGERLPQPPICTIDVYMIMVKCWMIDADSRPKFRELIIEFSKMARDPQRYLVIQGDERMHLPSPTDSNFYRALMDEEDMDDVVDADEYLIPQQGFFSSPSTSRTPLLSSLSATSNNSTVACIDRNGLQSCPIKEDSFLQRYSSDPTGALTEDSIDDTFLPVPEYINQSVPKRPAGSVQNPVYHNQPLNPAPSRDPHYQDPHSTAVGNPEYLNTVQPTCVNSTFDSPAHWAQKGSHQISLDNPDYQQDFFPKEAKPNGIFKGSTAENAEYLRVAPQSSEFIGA
method.notes: Inhibition of His-tagged EGFR cytoplasmic domain (645-1186 aa) (unknown origin) assessed as inhibition of autophosphorylation by TR-fluorometry
condition.set: read-out: pIC50 (converted)
Give the quantity in µM, number only.

**Q:** State IC50 on Epidermal growth factor receptor (Homo sapiens). Entry: CC(=O)N1N=C(c2ccc(I)cc2)CC1c1ccc(C(=O)OC(C)Cn2c([N+](=O)[O-])cnc2C)cc1 (stereo unspecified)
**A:** 10.7

====

Test system: HepG2
method.notes: Antiproliferative activity against human HepG2 cells after 12 hrs by MTT assay
Format: functional, cell-based
condition.set: HepG2, 12 h
# IC50 values compiled below
Report field: quantity (unit follows the number).

Some solved entries appear below for comparison.
[
  {
    "compound": "COc1ccc(C2=NN(C(C)=O)C(c3ccc(C(=O)OCCn4c([N+](=O)[O-])cnc4C)cc3)C2)cc1 (stereo not given)",
    "IC50": "15.8 µM"
  },
  {
    "compound": "CC(=O)N1N=C(c2ccccc2)CC1c1ccc(C(=O)OC(C)Cn2c([N+](=O)[O-])cnc2C)cc1 (stereo not given)",
    "IC50": "43.8 µM"
  },
  {
    "compound": "CC(=O)N1N=C(c2ccc(C)cc2)CC1c1ccc(C(=O)OCCn2c([N+](=O)[O-])cnc2C)cc1 (stereo not given)",
    "IC50": "50.2 µM"
  },
  {
    "compound": "CC(=O)N1N=C(c2ccc([N+](=O)[O-])cc2)CC1c1ccc(C(=O)OCCn2c([N+](=O)[O-])cnc2C)cc1 (stereo not given)",
    "IC50": "1.75 µM"
  }
]

Field: next compound
**Q:** Give IC50; test system HepG2; compound CC(=O)N1N=C(c2ccc(Br)cc2)CC1c1ccc(C(=O)OCCn2c([N+](=O)[O-])cnc2C)cc1 (stereo not given)
**A:** 3.82 µM

====

target.under.test: UniProtKB P00533
method.notes: Inhibition of His-tagged EGFR cytoplasmic domain (645-1186 aa) (unknown origin) assessed as inhibition of autophosphorylation by TR-fluorometry
condition.set: read-out: IC50
readout.kind: pIC50
# pIC50 = -log10(concentration in molar units)

[
  {
    "compound": "CC(=O)N1N=C(c2ccc([N+](=O)[O-])cc2)CC1c1ccc(C(=O)OC(C)Cn2c([N+](=O)[O-])cnc2C)cc1 (stereo not given)",
    "readout.kind": "pIC50",
    "result.number": 5.84
  }
]

**Q:** Tell me its pIC50 given CC(=O)N1N=C(c2ccc(I)cc2)CC1c1ccc(C(=O)OC(C)Cn2c([N+](=O)[O-])cnc2C)cc1 (stereo not given) as the entry.
**A:** 4.97

**Q:** Consider the compound CC(=O)N1N=C(c2ccc(I)cc2)CC1c1ccc(C(=O)OCCn2c([N+](=O)[O-])cnc2C)cc1 (stereo not given) and give its recorded pIC50.
**A:** 5.90

**Q:** Name the recorded pIC50 of the compound listed here: CC(=O)N1N=C(c2ccc(C(F)(F)F)cc2)CC1c1ccc(C(=O)OCCn2c([N+](=O)[O-])cnc2C)cc1 (stereo not given)
**A:** 6.59

**Q:** Return reported pIC50. Input compound: CC(=O)N1N=C(c2ccc(Cl)cc2)CC1c1ccc(C(=O)OCCn2c([N+](=O)[O-])cnc2C)cc1 (stereo not given)
**A:** 5.13

**Q:** Answer with the recorded pIC50 for the compound listed here: CC(=O)N1N=C(c2ccc(F)cc2)CC1c1ccc(C(=O)OC(C)Cn2c([N+](=O)[O-])cnc2C)cc1 (stereo not given)
**A:** 5.18

**Q:** Query pIC50 for CC(=O)N1N=C(c2ccc(C(F)(F)F)cc2)CC1c1ccc(C(=O)OC(C)Cn2c([N+](=O)[O-])cnc2C)cc1 (stereo not given)
**A:** 5.18

**Q:** Specify measured pIC50 for CC(=O)N1N=C(c2ccc(Br)cc2)CC1c1ccc(C(=O)OCCn2c([N+](=O)[O-])cnc2C)cc1 (stereo not given) .
**A:** 5.38

**Q:** Report measured pIC50; entry is CC(=O)N1N=C(c2ccc(Cl)cc2)CC1c1ccc(C(=O)OC(C)Cn2c([N+](=O)[O-])cnc2C)cc1 (stereo not given)
**A:** 5.03

**Q:** Check the records and state pIC50 for CC(=O)N1N=C(c2ccc(C)cc2)CC1c1ccc(C(=O)OCCn2c([N+](=O)[O-])cnc2C)cc1 (stereo not given)
**A:** 4.96

**Q:** Please report pIC50 for the following compound: COc1ccc(C2=NN(C(C)=O)C(c3ccc(C(=O)OC(C)Cn4c([N+](=O)[O-])cnc4C)cc3)C2)cc1 (stereo not given)
**A:** 4.67

**Q:** Hello, please tell me recorded pIC50 for this one: CC(=O)N1N=C(c2ccc(Br)cc2)CC1c1ccc(C(=O)OC(C)Cn2c([N+](=O)[O-])cnc2C)cc1 (stereo not given)
**A:** 5.22

**Q:** Supply pIC50 value. Item: COc1ccc(C2=NN(C(C)=O)C(c3ccc(C(=O)OCCn4c([N+](=O)[O-])cnc4C)cc3)C2)cc1 (stereo not given)
**A:** 5.07

**Q:** Fill in reported pIC50 for this entry: CC(=O)N1N=C(c2ccccc2)CC1c1ccc(C(=O)OCCn2c([N+](=O)[O-])cnc2C)cc1 (stereo not given)
**A:** 5.02

**Q:** Output pIC50 of CC(=O)N1N=C(c2ccc([N+](=O)[O-])cc2)CC1c1ccc(C(=O)OCCn2c([N+](=O)[O-])cnc2C)cc1 (stereo not given)
**A:** 6.22

====

method.notes: Cytotoxicity against human HEK293T cells for 24 hrs by MTT assay
Assay type: cell-based, HEK-293T
readout.kind: CC50 at 24 h
Kindly format the answer as number then unit.

Worked examples follow.
[
  {
    "molecule": "CC(=O)N1N=C(c2ccc(Cl)cc2)CC1c1ccc(C(=O)OCCn2c([N+](=O)[O-])cnc2C)cc1 (centres undefined)",
    "CC50 at 24 h": "138 µM"
  },
  {
    "molecule": "CC(=O)N1N=C(c2ccc(F)cc2)CC1c1ccc(C(=O)OCCn2c([N+](=O)[O-])cnc2C)cc1 (centres undefined)",
    "CC50 at 24 h": "118 µM"
  },
  {
    "molecule": "CC(=O)N1N=C(c2ccc([N+](=O)[O-])cc2)CC1c1ccc(C(=O)OC(C)Cn2c([N+](=O)[O-])cnc2C)cc1 (centres undefined)",
    "CC50 at 24 h": "168 µM"
  }
]

Continue with the molecule presented below.
**Q:** Return CC50 at 24 h for the following molecule: CC(=O)N1N=C(c2ccc(C(F)(F)F)cc2)CC1c1ccc(C(=O)OCCn2c([N+](=O)[O-])cnc2C)cc1 (centres undefined)
**A:** 98.9 µM

====

CC50 at 24 h reference
method.notes: Cytotoxicity against human HEK293T cells for 24 hrs by MTT assay
Type: cell-based, HEK-293T

**Q:** Please give measured CC50 at 24 h of the following entry: CC(=O)N1N=C(c2ccc(C(F)(F)F)cc2)CC1c1ccc(C(=O)OC(C)Cn2c([N+](=O)[O-])cnc2C)cc1 (centres undefined)
**A:** 92.6 µM

**Q:** Find the measured CC50 at 24 h of CC(=O)N1N=C(c2ccc([N+](=O)[O-])cc2)CC1c1ccc(C(=O)OCCn2c([N+](=O)[O-])cnc2C)cc1 (centres undefined) and report it.
**A:** 78.8 µM

**Q:** Please look at this compound and report its CC50 at 24 h: C#Cc1cccc(Nc2ncnc3cc(OCCOC)c(OCCOC)cc23)c1
**A:** 105 µM

**Q:** Give the measured CC50 at 24 h for CS(=O)(=O)CCNCc1ccc(-c2ccc3ncnc(Nc4ccc(OCc5cccc(F)c5)c(Cl)c4)c3c2)o1
**A:** 123 µM

====

target.under.test: Receptor tyrosine-protein kinase erbB-2 (Homo sapiens, UniProt P04626)
Sequence (P04626 whole entry): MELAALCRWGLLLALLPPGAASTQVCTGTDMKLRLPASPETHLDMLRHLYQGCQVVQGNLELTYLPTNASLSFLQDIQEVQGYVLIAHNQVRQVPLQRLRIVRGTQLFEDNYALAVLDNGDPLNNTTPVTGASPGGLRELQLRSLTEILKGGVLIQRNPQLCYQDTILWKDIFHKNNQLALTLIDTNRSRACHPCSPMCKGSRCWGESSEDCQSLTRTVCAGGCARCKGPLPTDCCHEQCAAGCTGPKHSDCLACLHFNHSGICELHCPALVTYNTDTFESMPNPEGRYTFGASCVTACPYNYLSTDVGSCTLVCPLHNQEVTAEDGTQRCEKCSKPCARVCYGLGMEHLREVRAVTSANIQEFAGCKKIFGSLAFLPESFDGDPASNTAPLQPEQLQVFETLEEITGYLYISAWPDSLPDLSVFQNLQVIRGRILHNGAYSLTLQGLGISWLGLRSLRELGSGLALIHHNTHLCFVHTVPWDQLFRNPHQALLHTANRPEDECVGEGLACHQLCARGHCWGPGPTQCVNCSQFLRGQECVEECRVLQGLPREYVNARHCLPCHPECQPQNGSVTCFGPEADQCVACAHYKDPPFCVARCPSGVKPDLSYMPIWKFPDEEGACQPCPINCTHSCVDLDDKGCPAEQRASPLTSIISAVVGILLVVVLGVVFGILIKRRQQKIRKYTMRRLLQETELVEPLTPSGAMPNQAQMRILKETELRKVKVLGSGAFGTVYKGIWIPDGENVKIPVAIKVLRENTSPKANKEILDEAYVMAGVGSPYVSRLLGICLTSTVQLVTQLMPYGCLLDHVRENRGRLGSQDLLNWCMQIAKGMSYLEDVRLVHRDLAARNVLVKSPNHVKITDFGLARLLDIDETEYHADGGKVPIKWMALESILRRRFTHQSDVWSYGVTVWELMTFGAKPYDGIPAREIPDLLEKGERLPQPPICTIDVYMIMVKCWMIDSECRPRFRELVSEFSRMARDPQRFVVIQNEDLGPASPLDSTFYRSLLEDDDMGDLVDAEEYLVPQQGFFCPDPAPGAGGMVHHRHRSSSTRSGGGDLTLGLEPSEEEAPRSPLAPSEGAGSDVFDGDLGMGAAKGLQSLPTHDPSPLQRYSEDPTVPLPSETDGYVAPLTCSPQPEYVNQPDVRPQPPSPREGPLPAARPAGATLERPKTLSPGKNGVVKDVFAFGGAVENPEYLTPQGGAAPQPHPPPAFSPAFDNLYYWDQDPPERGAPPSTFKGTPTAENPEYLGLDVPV
Criterion: IC50 strictly under 4 µM. Met: t. Not met: f.

Please review the entries below; each comes with its answer.
[
  {
    "molecule": "CC(=O)N1N=C(c2ccc([N+](=O)[O-])cc2)CC1c1ccc(C(=O)OC(C)Cn2c([N+](=O)[O-])cnc2C)cc1 (stereo unspecified)",
    "target.under.test": "Receptor tyrosine-protein kinase erbB-2 (Homo sapiens, UniProt P04626)",
    "cat": "t"
  },
  {
    "molecule": "CC(=O)N1N=C(c2ccc(C(F)(F)F)cc2)CC1c1ccc(C(=O)OCCn2c([N+](=O)[O-])cnc2C)cc1 (stereo unspecified)",
    "target.under.test": "Receptor tyrosine-protein kinase erbB-2 (Homo sapiens, UniProt P04626)",
    "cat": "t"
  },
  {
    "molecule": "CC(=O)N1N=C(c2ccc([N+](=O)[O-])cc2)CC1c1ccc(C(=O)OCCn2c([N+](=O)[O-])cnc2C)cc1 (stereo unspecified)",
    "target.under.test": "Receptor tyrosine-protein kinase erbB-2 (Homo sapiens, UniProt P04626)",
    "cat": "t"
  }
]

**Q:** Check if IC50 falls below 4 µM for CC(=O)N1N=C(c2ccc(C)cc2)CC1c1ccc(C(=O)OC(C)Cn2c([N+](=O)[O-])cnc2C)cc1 (stereo unspecified) .
**A:** f

**Q:** Report whether reported IC50 is lower than 4 µM (strictly) for CCOc1ccc(C2=NN(C(C)=O)C(c3ccc(C(=O)OC(C)Cn4c([N+](=O)[O-])cnc4C)cc3)C2)cc1 (stereo unspecified)
**A:** f

**Q:** Report whether reported IC50 is lower than 4 µM (strictly) for CC(=O)N1N=C(c2ccc(I)cc2)CC1c1ccc(C(=O)OCCn2c([N+](=O)[O-])cnc2C)cc1 (stereo unspecified)
**A:** t

**Q:** Strictly below 4 µM in IC50? CC(=O)N1N=C(c2ccc(C)cc2)CC1c1ccc(C(=O)OCCn2c([N+](=O)[O-])cnc2C)cc1 (stereo unspecified)
**A:** f

**Q:** Item CC(=O)N1N=C(c2ccc(I)cc2)CC1c1ccc(C(=O)OC(C)Cn2c([N+](=O)[O-])cnc2C)cc1 (stereo unspecified) : IC50 beneath 4 µM, strictly?
**A:** f

**Q:** Does this molecule meet the criterion IC50 < 4 µM? CC(=O)N1N=C(c2ccccc2)CC1c1ccc(C(=O)OC(C)Cn2c([N+](=O)[O-])cnc2C)cc1 (stereo unspecified)
**A:** f

**Q:** Decide: IC50 of CC(=O)N1N=C(c2ccc(F)cc2)CC1c1ccc(C(=O)OC(C)Cn2c([N+](=O)[O-])cnc2C)cc1 (stereo unspecified) strictly below 4 µM?
**A:** f
